# target: T1, 4H883-AA
# T1 chain: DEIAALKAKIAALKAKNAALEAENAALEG
# method_summary: two-hybrid library CCmax;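 note: natural log of median RNA to DNA barcode read ratio; higher means stronger binding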
# condition_summary: mean of both orientations
measurement_name: interaction score

Consider the following illustrative entries.
DKNAALEAKIAALEAENAALKAEIAALKG [4H3354-AA] : -2
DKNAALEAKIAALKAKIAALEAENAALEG [4H3427-AA] : -1.7
DENAALEAKNAALEAKIAALEAKIAALKG [4H1446-AA] : -1.54
DEIAALKAKIAALEAENAALKAKIAALEG [4H797-AA] : -1.4
DKNAALKAKIAALEAEIAALKAKNAALEG [4H3855-AA] : -1.77

1: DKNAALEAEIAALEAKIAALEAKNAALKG [4H3112-AA]
2: DEIAALKAENAALEAKIAALKAKNAALEG [4H687-AA]
Problem: Param metric = interaction score; output whichever of 1 , 2 has the minimum value. // respond with label for picked entry
Solution: 2
(2: -1.77, 1: 0.194)
